B1: Caulobacter ParB omega fusion; a variant is named by its letters at X, in order, B8GW30 (parent)
chain: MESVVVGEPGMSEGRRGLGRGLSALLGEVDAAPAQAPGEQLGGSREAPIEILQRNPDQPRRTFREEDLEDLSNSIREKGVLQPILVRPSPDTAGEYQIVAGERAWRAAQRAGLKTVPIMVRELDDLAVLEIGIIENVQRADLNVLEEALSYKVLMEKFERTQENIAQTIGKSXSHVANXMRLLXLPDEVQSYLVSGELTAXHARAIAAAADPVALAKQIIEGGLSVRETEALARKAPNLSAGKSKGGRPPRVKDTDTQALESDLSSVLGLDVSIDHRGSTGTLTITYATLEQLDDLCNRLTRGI

variants of: B1; test: one-hybrid fitness for binding parS DNA (scaled: cognate 1, non-cognate 0); higher = stronger binding; settings: with parS DNA site
Over roughly 81,000 sequences, “one-hybrid fitness for binding parS DNA” has its median near -0.17; the highest 2% begin near 0.51. This is one part of a sample in which the highest values are shown more often than they occur.
Result type: one-hybrid fitness for binding parS DNA

Examples with their reported one-hybrid fitness for binding parS DNA follow.
Mutant label	one-hybrid fitness for binding parS DNA
RLPF	≤ 0.2
LFYR	≤ 0.2
PYNM	≤ 0.2
QTKN	≤ 0.2
RLHD	≤ 0.2

Ask: Item KDLS : provide one-hybrid fitness for binding parS DNA
Reply: ≤ 0.2

Ask: Provide measured one-hybrid fitness for binding parS DNA value, entry: RLLK
Reply: ≤ 0.2

Ask: Look up one-hybrid fitness for binding parS DNA of RLIF and report it.
Reply: ≤ 0.2

Ask: Find the measured one-hybrid fitness for binding parS DNA of WYDG and report it.
Reply: ≤ 0.2
